This section presents compounds with their documented pIC50 values.
Tested on: pSTAT5/GM-CSF
measurement-notes: pSTAT5/GM-CSF cellular assay (JAK2 selectivity)
Assay type: cell-based
pIC50: −log10 of the molar value.

Before answering, review these 2 worked examples.
CC(=O)Nc1cc(Nc2cc(OC(C)C)cc(S(C)(=O)=O)n2)c(-c2ccn([C@@H]3CCOC3)n2)cn1 : < 5.00
CC(=O)Nc1cc(Nc2cc(OC[C@H](C)O)cc(S(C)(=O)=O)n2)c(-c2ccc(C(F)(F)F)cn2)cn1 : < 5.00

Q: Value wanted: pIC50 (pSTAT5/GM-CSF) of entry COCCn1ccc(-c2cnc(NC(C)=O)cc2Nc2cc(C)cc(S(C)(=O)=O)n2)n1
Result: 5.46

Q: For the record COc1ccc(S(C)(=O)=O)nc1Nc1cc(NC(C)=O)ncc1-c1cnn(C)c1 , what value of pIC50 is listed for pSTAT5/GM-CSF?
Result: < 5.00

Q: Enter reported pIC50 observed with pSTAT5/GM-CSF for CC(=O)Nc1cc(Nc2cccc(S(C)(=O)=O)c2)c(-c2cccnn2)cn1
Result: < 5.00

----------
assay-target: TYK2-JH2 (aa 575-869, in-house) protein (Homo sapiens, UniProt P29597)
Construct: TYK2-JH2 (aa 575-869, in-house) protein; made in house
Sequence (P29597 575-869): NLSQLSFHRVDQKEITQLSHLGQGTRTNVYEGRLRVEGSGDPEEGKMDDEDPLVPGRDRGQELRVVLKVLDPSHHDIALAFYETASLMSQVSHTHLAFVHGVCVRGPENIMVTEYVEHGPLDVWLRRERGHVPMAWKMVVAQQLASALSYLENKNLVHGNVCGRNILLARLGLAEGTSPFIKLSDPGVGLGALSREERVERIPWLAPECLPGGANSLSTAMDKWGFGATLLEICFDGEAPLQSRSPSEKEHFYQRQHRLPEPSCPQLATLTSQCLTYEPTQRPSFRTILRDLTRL
measurement-notes: TYK2-JH2 biochemical assay (HTRF probe displacement)
Type: binding
condition-details: Biochemical assay; read-out: TYK2-JH2 IC50
pIC50: −log10 of the molar value.
measured-quantity: pIC50

CC(=O)Nc1cc(Nc2cccc(S(C)(=O)=O)n2)c(-c2ccc(OC3CCOC3)cn2)cn1 (stereo not shown) : 10.40
CC(=O)Nc1cc(Nc2cc(OC(C)C)cc(S(C)(=O)=O)n2)c(-c2ccc(C(F)(F)F)cn2)cn1 : 10.22

(I) CC(=O)Nc1cc(Nc2cc(C)cc(S(C)(=O)=O)n2)c(-c2cc(C(C)(C)O)ccn2)cn1
(II) CC(=O)Nc1cc(Nc2cc(OC(C)C)cc(S(C)(=O)=O)n2)c(-n2ccnc2)cn1
Q: Hey, which is lower on measured pIC50, I or II ? Which one? Tell me its label.
Result: II
(II: 8.09, I: 10.35)

(P) CC(=O)Nc1cc(Nc2cc(OCC3CC3)cc(S(C)(=O)=O)c2)c(-c2ccc(N3C[C@@H](C)O[C@@H](C)C3)cn2)cn1
(Q) CC(=O)Nc1cc(Nc2cc(N3CCC(C)(O)C3)cc(S(C)(=O)=O)n2)c(-c2ccc3c(n2)OCC(C)(C)O3)cn1 (stereo not shown)
Q: I would appreciate it if you could say which entry, P or Q , has the lower pIC50 value. Answer with the label corresponding to your selection.
Result: P
(P: 10.27, Q: 10.51)

----------
The reader will find reported Selectivity fold (TYK2/JAK2) values listed item by item below.
Tested on: JAK2, TYK2/p-STAT4 (Tyr693) activated by IL-12 in NK-92 cell line
measurement-notes: IL-12-JAK2, TYK2/p-STAT4 (Tyr693) inhibition IC50 cellular assay
Format: cell-based
condition-details: Cellular assay; pSTAT5/GM-CSF IC50 vs pSTAT4/IL-12 IC50

Below are worked cases with known answers.
CC(=O)Nc1cc(Nc2cc(OCC3CC3)cc(S(C)(=O)=O)n2)c(-c2ccc(C(C)(C)O)cn2)cn1 : >10288 fold
CC(=O)Nc1cc(Nc2cc(OCC(C)O)cc(S(C)(=O)=O)n2)c(-c2ccc(C(C)(C)O)cn2)cn1 (centres unmarked) : >854 fold
COc1cc(S(C)(=O)=O)nc(Nc2cc(NC(C)=O)ncc2-c2ccc(F)cn2)c1OC : >9345 fold
CC(=O)Nc1cc(Nc2cc(OC(C)C)cc(S(C)(=O)=O)c2)c(-c2ccc(C(C)(C)O)cn2)cn1 : >1855 fold

Q: Look up Selectivity fold (TYK2/JAK2) with JAK2, TYK2/p-STAT4 (Tyr693) activated by IL-12 in NK-92 cell line for this compound: COCCOc1ccc(-c2cnc(NC(C)=O)cc2Nc2cc(C)cc(S(C)(=O)=O)n2)nc1
Result: >38167 fold

Q: // fetch JAK2, TYK2/p-STAT4 (Tyr693) activated by IL-12 in NK-92 cell line Selectivity fold (TYK2/JAK2) for CC(=O)Nc1cc(Nc2cccc(S(C)(=O)=O)n2)c(-c2ccccn2)cn1
Result: >41152 fold

Q: Any idea what Selectivity fold (TYK2/JAK2) came out for CCOc1cc(Nc2cc(NC(C)=O)ncc2-c2ccc(F)cn2)nc(S(C)(=O)=O)c1 on JAK2, TYK2/p-STAT4 (Tyr693) activated by IL-12 in NK-92 cell line?
Result: >3267 fold

Q: API: value(readout= Selectivity fold (TYK2/JAK2), system= JAK2, TYK2/p-STAT4 (Tyr693) activated by IL-12 in NK-92 cell line, query= CC(=O)Nc1cc(Nc2cc(OC(C)C)cc(S(C)(=O)=O)n2)c(-c2ccc(C(F)(F)F)cn2)cn1 )
Result: > 1834 fold
